Assay text: Pharmacokinetics test using rats (brain permeability, blood and brain tissue by HPLC)
Assay type: in vivo, Sprague-Dawley rats
Condition label: Sprague-Dawley, rat, brain, iv, 10 mg/kg, i.v. 10 mg/kg, 30 min, under nonanaesthesia, fasting, average, read-out: Conc. brain, Ave.
Reported property: concentration at 30 min (ng/mL)
One number for each entry, in ng/mL.

Kindly note the recorded concentration at 30 min for Cc1cccc(COc2nc(N)nc3nc[nH]c23)c1 , which is 1380

----------
Assay text: Pharmacokinetics test using rats (brain permeability, blood and brain tissue by HPLC)
Type: in vivo, Sprague-Dawley rats
Condition label: Sprague-Dawley, rat, plasma, iv, 10 mg/kg, average (n = 3), 30 min after i.v. 10 mg/kg of 2, rat under nonanaesthesia and fasting; other rats than brain sample; read-out: Conc. Plasma
Reported property: concentration at 30 min

Kindly note the recorded concentration at 30 min for Cc1cccc(COc2nc(N)nc3nc[nH]c23)c1 [Compound 2, O^6-(3-methylbenzyl) guanine] , which is 5190 ng/mL

These entries and their values trace back to patent US10981913B2.
